# credit: patent US12415819B2

- TESTED_ON: UniProt P08246
- Sequence (P08246 30-267): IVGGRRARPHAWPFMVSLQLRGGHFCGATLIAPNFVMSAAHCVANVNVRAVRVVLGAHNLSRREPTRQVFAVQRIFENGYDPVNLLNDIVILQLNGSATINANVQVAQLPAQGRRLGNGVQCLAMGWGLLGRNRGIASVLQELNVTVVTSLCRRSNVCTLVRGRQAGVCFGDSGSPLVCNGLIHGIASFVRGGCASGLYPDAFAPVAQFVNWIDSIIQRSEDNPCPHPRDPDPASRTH
OBSERVED_PROPERTY: pIC50
# pIC50 is unitless: minus log10 of the molar concentration; print number only

molecule="COC(=O)C1=C(C)N(c2cccc(C(F)(F)F)c2)c2nn(CC(=O)N(C)CCC[N+](C)(C)C)c(=O)n2C1c1ccc(C#N)cc1 (stereo not shown) [Compound 57]" endpoint_value=8.69

Ask: Return reported pIC50; argument: COC(=O)C1=C(C)N(c2cccc(C(F)(F)F)c2)c2n[nH]c(=O)n2C1c1ccc(C#N)cc1 (stereo not shown) [Compound 56]
Result: 8.57

Ask: Consider next the molecule CC(C)[C@H](NC(=O)[C@@H]1CCCN1C(=O)[C@@H](NC(=O)c1ccc(C(=O)NCC(=O)O)cc1)C(C)C)B(O)O [Compound 52] in the same way.
Result: 10.37

Ask: Consider next the molecule Cc1c(-c2ccnn2-c2ccc(C#N)cc2)cc(C(=O)NCC(O)CNC(=O)c2cc(-c3ccnn3-c3ccc(C#N)cc3)c(C)n(-c3cccc(C(F)(F)F)c3)c2=O)c(=O)n1-c1cccc(C(F)(F)F)c1 [Compound 58] in the same way.
Result: 6.69

Ask: Consider next the molecule CC(C)[C@H](NC(=O)[C@@H]1CCCN1C(=O)[C@@H](NC(=O)c1ccc(C(=O)NS(=O)(=O)c2ccc(Cl)cc2)cc1)C(C)C)B(O)O [Compound 51] in the same way.
Result: 10.02

Ask: Consider next the molecule COC(=O)N[C@H](C(=O)N1CCC[C@H]1C(=O)N[C@H](B(O)O)C(C)C)C(C)C [Compound 50] in the same way.
Result: 9.29

Ask: Consider next the molecule Cc1c(-c2ccnn2C)cc(C(=O)NCc2ccc(S(C)(=O)=O)cn2)c(=O)n1-c1cccc(C(F)(F)F)c1 [Compound 53] in the same way.
Result: 8.39
